system.under.test: human galectin-4C (C-terminal domain) (Homo sapiens, UniProt P56470)
Construct: 4N (N-terminal domain) 4C (C-terminal domain); made in house
Sequence (P56470 194-323 limits assumed): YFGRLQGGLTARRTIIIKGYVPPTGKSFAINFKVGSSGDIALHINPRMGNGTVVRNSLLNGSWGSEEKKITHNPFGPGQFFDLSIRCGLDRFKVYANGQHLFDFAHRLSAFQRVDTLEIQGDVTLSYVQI
method.description: competitive fluorescence polarization assay, galectin-4C
Assay type: binding
details: Table 1, average and SEM, PBS
Experimental: Human galectin-1 [25], galectin-2 [26], galectin-3 [27], galectin-4N [19], galectin-4C [19], galectin-8N [28], galectin-8C [28], galectin-9N [29], and galectin-9C [30], were expressed and purified as described earlier. […] Fluorescence polarization experiments were carried out either with a POLARStar plate reader and FLUOstar Galaxy software or with a PheraStarFS plate reader and PHERAstar Mars version 2.10 R3 software (BMG, Offenburg, Germany). […]

| smiles | system.under.test | Kd |
| --- | --- | --- |
| CO[C@@H]1O[C@H](CO)[C@H](O)[C@H](CNC(=O)Nc2cccc(F)c2)[C@H]1O | human galectin-4C (C-terminal domain) (Homo sapiens, UniProt P56470) | > 4 mM |
| CO[C@@H]1O[C@H](CO)[C@H](O)[C@H](COc2cccc(C(F)(F)F)c2)[C@H]1O | human galectin-4C (C-terminal domain) (Homo sapiens, UniProt P56470) | > 4 mM |
| CO[C@@H]1O[C@H](CO)[C@H](O)[C@H](CO)[C@H]1O | human galectin-4C (C-terminal domain) (Homo sapiens, UniProt P56470) | > 4 mM |
